Attribution: patent US9284315B2

- ASSAY PROCEDURE: In vivo pharmacokinetics in rats, intravenous bolus injection (IV)
- DETAILS: male, SD, rat, plasma, iv, 2 mg/kg
Each entry below lists one item and its recorded half-life value.
Write down the numeric answer in h and omit the unit.

Please review the following examples before continuing.
> print(dat)
                                   molecule  result.number
1  CN1Cc2cnc3ccc(-c4ccc(N)nc4)nc3c2N(c2cccc(C(F)(F)F)c2)C1=O [Compound 3]           6.48
2  COc1ccc(-c2ccc3ncc4c(c3c2)n(-c2ccc(N3CCNCC3)c(C(F)(F)F)c2)c(=O)n4C)cn1 [BGT-226, reference compound]            4.8
3  CC(=O)Nc1ccc(-c2ccc3ncc4c(c3n2)N(c2cccc(C(F)(F)F)c2)C(=O)N(C)C4)cn1 [Compound 7]           0.47
4  Cn1c(=O)n(-c2ccc(C(C)(C)C#N)cc2)c2c3cc(-c4cnc5ccccc5c4)ccc3ncc21 [BEZ-235, reference compound]           3.19
5  CN1Cc2cnc3ccc(-c4cnc(N)nc4)nc3c2N(c2cccc(C(F)(F)F)c2)C1=O [Compound 14]           2.08

Note: attention shifts to another entry.
## Task Can you look up the measured half-life of CN1Cc2cnc3ccc(-c4cnc5[nH]ccc5c4)nc3c2N(c2cccc(C(F)(F)F)c2)C1=O [Compound 22] for me?
## Result 0.72
